Origin of measurements: patent US20210024646A1

- assayed_target: T1, extracellular domain of human CD73 protein (CD73-ECD), C-terminus polyhistidine-tagged (UniProt P21589 27-547)
- T1 chain: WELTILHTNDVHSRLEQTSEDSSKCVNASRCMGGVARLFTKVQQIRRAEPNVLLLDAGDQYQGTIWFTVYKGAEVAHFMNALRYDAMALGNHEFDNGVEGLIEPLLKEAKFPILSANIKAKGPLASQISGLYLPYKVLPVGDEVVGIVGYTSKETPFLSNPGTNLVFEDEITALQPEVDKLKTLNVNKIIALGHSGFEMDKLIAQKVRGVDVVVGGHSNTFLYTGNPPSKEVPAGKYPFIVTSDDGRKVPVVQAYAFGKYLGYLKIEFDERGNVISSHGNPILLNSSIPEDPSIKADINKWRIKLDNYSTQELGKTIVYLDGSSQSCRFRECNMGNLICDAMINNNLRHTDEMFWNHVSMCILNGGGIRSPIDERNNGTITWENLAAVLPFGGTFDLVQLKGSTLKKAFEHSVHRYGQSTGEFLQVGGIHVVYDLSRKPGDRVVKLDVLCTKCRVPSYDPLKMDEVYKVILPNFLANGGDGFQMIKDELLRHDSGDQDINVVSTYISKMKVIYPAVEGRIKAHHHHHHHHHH
- method_notes: enzyme inhibition; right table
readout_kind: pIC50
// scale note: pIC50 = -log10(conc_M); give the bare number

Hu001c-14 (antibody, V domains shown) VH: QVQLVQSGAEVKKPGASVKVSCKTSGYTFTNYYIYWVRQAPGQRLEWMGWIYPGNLNIKYNEKFKGRVTITADTSASTAYMELSSLRSEDTAVYYCARDDNYAWFAYWGQGTLVTVSS VL: DIQMTQSPSSLSASVGDRVTITCKASQDVSTAVAWYQQKPGKAPKLLIYWTNTRHTGVPSRFSGSGSGTDHTLTISSLQPEDFATYYCQQHYSTPFTFGQGTKLEIK: 10.22

Given item Hu001c-15 (antibody, V domains shown) VH: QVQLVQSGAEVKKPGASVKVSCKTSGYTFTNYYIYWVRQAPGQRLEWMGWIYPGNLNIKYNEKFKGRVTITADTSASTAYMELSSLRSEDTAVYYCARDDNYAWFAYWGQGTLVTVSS VL: DIQMTQSPSSLSASVGDRVTITCKASQDVSTAVAWYQQKPGKSPKLLIYWTNTRHTGVPSRFSGSGSGTDHTLTISSLQPEDFATYYCQQHYSTPFTFGQGTKLEIK , the value recorded as its pIC50 is 10.70

Form field pIC50, entry Hu001c-30 (antibody, V domains shown) VH: QVQLVQSGAEVKKPGASVKVSCKASGYTFTNYYIYWVKQRPGQRLEWIGWIYPGNLNIKYNEKFKGRSTLTADKSASTAYMELSSLRSEDTAVYYCARDDNYAWFAYWGQGTLVTVSS VL: DIQMTQSPSSLSASVGDRVTITCKASQDVSTAVAWYQQKPGKAPKLLIYWTNTRHTGVPSRFSGSGSGTDFTLTISSLQPEDFATYYCQQHYSTPFTFGQGTKLEIK : 9.89

get_value(item= mAb001c (antibody, V domains shown) VH: QVQLQQSGPELVKPGASVRISCKTSGYTFTNYYIYWVKQRPGQGLEWIGWIYPGNLNIKYNEKFKGKSTLTADKSSSTAFMQLSSLTSEDSAVYFCARDDNYAWFAYWGQGTLVTVSS VL: DIVMTQSHKFMSTSIGDRVSITCKASQDVSTAVAWYQQKPGQSPKLLIYWTNTRHTGVPDRFTGNTSGTEHTLTISSVQAEDLALYYCQQHYSTPFTFGSGTTLEIK , readout=pIC50) returns 10.70

// field: pIC50; key: Hu001c-24 (antibody, V domains shown) VH: QVQLVQSGAEVKKPGASVKVSCKTSGYTFTNYYIYWVKQRPGQGLEWIGWIYPGNLNIKYNEKFKGRVTITADKSASTAYMELSSLRSEDTAVYYCARDDNYAWFAYWGQGTLVTVSS VL: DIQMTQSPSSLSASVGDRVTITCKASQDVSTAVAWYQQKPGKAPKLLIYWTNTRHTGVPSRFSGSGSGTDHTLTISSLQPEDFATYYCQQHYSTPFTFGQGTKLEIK ; value = 10.52
